systemUnderTest: human capsaicin receptor (VR1) (Homo sapiens)
assayNotes: Capsaicin receptor binding assay ([3H]RTX competition, VR1-transfected HEK293 membranes)
conditionSummary: Table III; [3H]RTX competition binding, capsaicin receptor
pKi: −log10 of the molar value.
experimentalEndpoint: pKi

query: Lookup: pKi / human capsaicin receptor (VR1) (Homo sapiens) / CC1CC(C)CN(Cc2nc(Nc3ccc(C(F)(F)F)cc3)c3ccc(-c4ncccc4C(F)(F)F)cc3n2)C1 (stereo not shown) [Compound 347]
result: > 6.00

---

systemUnderTest: human capsaicin receptor (VR1) (Homo sapiens, UniProt Q8NER1)
Sequence (Q8NER1 whole entry): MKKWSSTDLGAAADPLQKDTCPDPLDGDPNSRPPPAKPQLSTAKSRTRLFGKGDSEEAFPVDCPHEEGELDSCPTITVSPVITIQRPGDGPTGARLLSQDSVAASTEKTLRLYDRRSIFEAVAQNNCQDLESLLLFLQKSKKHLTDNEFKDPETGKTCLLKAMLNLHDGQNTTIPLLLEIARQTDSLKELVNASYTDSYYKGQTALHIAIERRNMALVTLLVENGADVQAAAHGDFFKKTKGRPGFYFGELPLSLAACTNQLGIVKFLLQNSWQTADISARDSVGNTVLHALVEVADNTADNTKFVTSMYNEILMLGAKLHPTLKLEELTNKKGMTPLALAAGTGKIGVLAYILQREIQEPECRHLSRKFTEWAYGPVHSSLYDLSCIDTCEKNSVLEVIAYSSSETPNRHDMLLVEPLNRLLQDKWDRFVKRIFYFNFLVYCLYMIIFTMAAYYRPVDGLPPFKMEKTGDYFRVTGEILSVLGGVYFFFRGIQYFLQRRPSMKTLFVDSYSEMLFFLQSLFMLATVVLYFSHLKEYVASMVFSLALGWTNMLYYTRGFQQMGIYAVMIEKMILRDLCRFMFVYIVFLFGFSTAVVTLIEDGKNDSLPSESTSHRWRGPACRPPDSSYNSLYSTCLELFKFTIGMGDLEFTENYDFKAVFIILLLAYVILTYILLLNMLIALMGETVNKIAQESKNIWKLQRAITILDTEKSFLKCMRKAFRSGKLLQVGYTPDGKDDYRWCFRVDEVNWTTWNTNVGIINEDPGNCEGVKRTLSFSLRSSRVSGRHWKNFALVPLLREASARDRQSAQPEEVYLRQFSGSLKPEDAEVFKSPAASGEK
assayNotes: Capsaicin receptor binding assay ([3H]RTX competition, VR1-transfected HEK293 membranes)
conditionSummary: Table III; * = Ki 1 micromolar or less
experimentalEndpoint: Ki

query: I'd like to know its Ki. The compound in question is CCOC(=O)C1CCN(CCc2nc(Nc3ccc(C(F)(F)F)cc3)c3ccc(-c4ncccc4C(F)(F)F)cc3n2)CC1
result: < 1000 nM
